- Test system: Rattus norvegicus
- EXPERIMENT SUMMARY: Antihyperglycemic activity in streptozotocin-induced Sprague-Dawley albino rat diabetic model assessed as reduction of blood glucose AUC (0 to 5 hrs) at 100 mg/kg, po by glucometer relative to control
- Type: functional
- Parameters: scale not given: the % may be the effect or the level left

# SMILES REPR, TESTED SYSTEM, MEASUREMENT UNIT, Activity
data = [
    ("CN(C)C(=N)NC(=N)N", "Rattus norvegicus", "%", 21),
    ("O=C(NCc1ccccc1)NCc1ccc(-c2ccc([N+](=O)[O-])cc2)o1", "Rattus norvegicus", "%", 12.5),
    ("COc1cc(OC)c(CNC(=O)NCc2ccccc2)c(OC)c1", "Rattus norvegicus", "%", 16.1),
    ("COc1cc(Cl)c(CNC(=O)NCc2cccc([N+](=O)[O-])c2)c(Cl)c1OC", "Rattus norvegicus", "%", 7.26),
    ("O=C(NCc1cccc([N+](=O)[O-])c1)NCc1ccccc1[N+](=O)[O-]", "Rattus norvegicus", "%", 20.4),
    ("O=C(NCc1cccc([N+](=O)[O-])c1)NCc1ccc(-c2ccc([N+](=O)[O-])cc2)o1", "Rattus norvegicus", "%", 18.4),
    ("CC(=O)Nc1ccc(CNC(=O)NCc2ccccc2)cc1", "Rattus norvegicus", "%", 14.2),
]
